assay comment: Tmax in Sprague-Dawley rat at 10 mg/kg, po
Format: ADME, organism-based
details: in vivo
parameter: Tmax

smi	observed measurement
CCc1cc2c(cc1N1CCN(CC3(O)CCOCC3)CC1)C(C)(C)c1[nH]c3cc(C#N)ccc3c1C2=O	4 h

###

system: Epidermal growth factor receptor (Homo sapiens, UniProt P00533)
Sequence (P00533 whole entry): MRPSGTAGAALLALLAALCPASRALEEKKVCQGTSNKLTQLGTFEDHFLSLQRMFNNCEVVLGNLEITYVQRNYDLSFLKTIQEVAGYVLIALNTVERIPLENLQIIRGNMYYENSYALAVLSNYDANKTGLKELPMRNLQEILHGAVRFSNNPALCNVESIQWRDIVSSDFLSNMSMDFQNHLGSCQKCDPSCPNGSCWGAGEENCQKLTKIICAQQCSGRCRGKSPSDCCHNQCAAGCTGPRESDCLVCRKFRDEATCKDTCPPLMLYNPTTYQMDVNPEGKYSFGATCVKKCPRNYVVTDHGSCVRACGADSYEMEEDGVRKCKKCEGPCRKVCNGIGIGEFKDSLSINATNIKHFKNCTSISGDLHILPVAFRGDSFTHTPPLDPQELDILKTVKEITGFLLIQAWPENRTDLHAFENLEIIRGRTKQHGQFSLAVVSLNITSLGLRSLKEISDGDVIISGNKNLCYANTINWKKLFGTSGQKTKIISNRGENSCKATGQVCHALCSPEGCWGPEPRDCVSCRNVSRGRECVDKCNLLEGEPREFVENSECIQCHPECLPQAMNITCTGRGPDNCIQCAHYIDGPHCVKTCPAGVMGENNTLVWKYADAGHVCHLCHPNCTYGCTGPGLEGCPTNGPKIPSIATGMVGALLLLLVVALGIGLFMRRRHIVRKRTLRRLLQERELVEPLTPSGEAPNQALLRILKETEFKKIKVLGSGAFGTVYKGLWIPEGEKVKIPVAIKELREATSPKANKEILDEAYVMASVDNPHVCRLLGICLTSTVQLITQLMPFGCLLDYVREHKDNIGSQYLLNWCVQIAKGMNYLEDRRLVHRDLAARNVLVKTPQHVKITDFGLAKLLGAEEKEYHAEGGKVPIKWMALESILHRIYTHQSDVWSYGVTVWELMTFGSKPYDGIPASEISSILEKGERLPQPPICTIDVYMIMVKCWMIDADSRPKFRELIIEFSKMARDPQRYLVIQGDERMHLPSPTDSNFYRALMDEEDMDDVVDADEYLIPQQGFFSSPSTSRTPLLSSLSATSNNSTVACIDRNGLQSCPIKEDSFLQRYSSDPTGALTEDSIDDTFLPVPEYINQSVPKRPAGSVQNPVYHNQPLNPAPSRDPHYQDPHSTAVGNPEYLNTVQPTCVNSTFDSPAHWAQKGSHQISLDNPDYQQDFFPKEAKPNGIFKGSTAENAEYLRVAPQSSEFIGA
assay comment: Inhibition of recombinant EGFR (unknown origin) using poly (Glu,Tyr)4:1 as substrate after 60 mins by ELISA
pIC50: −log10 of the molar value.

smi	system	pIC50
CCc1cc2c(cc1N1CCN(CC3(O)CCOCC3)CC1)C(C)(C)c1[nH]c3cc(C#N)ccc3c1C2=O	Epidermal growth factor receptor (Homo sapiens, UniProt P00533)	< 6.00

###

assay comment: Cmax in Sprague-Dawley rat at 10 mg/kg, po
Assay type: ADME, organism-based
Design: dose 10 mg/kg, route oral
details: in vivo
parameter: Cmax (ng/mL)

smi	unit abbreviation	observed measurement
CCc1cc2c(cc1N1CCN(CC3(O)CCOCC3)CC1)C(C)(C)c1[nH]c3cc(C#N)ccc3c1C2=O	ng/mL	867

###

system: UniProt:Q9UM73
Sequence (Q9UM73 whole entry): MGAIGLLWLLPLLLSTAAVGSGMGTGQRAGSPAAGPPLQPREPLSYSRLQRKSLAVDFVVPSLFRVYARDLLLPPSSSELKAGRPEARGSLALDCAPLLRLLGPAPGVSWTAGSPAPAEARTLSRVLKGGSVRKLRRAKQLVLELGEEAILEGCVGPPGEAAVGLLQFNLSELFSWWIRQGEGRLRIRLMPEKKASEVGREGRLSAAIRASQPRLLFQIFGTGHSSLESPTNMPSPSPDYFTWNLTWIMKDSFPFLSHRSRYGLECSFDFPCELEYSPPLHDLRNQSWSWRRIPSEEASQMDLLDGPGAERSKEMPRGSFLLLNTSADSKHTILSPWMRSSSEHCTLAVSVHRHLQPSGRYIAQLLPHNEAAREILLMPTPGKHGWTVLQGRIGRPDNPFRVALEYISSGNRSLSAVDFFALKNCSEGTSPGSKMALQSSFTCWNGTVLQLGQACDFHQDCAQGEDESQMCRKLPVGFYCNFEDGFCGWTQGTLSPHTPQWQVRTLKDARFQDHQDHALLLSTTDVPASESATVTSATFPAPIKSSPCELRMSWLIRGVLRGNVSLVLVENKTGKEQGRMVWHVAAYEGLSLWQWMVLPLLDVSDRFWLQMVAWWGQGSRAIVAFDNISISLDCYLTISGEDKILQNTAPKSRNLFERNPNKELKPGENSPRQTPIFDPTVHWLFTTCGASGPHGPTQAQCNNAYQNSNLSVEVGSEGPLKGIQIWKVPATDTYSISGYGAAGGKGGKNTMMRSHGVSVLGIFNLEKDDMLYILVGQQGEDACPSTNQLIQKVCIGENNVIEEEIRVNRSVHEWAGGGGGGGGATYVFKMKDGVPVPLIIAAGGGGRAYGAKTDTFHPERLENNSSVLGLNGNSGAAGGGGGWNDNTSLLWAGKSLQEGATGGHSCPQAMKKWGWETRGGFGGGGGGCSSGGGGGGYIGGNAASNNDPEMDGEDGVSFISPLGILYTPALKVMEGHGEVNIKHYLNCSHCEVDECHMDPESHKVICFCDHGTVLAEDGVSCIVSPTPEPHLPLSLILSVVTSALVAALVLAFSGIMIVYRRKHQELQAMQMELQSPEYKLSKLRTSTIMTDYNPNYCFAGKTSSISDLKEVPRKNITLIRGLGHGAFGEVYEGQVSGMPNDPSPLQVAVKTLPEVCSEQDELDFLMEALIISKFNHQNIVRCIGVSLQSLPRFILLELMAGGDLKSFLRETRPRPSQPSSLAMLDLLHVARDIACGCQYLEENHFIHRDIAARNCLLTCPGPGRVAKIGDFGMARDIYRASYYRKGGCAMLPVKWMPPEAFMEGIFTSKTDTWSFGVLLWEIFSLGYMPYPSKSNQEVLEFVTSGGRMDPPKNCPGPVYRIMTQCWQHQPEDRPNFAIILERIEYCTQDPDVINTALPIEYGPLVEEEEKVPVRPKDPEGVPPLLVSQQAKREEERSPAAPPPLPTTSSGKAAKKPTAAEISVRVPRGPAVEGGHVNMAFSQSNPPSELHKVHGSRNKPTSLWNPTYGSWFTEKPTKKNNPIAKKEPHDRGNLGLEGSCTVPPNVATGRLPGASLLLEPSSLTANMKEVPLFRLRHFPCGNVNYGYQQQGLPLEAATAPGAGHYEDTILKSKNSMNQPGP
assay comment: Inhibition of recombinant wild type ALK (unknown origin) using poly (Glu,Tyr)4:1 as substrate after 60 mins by ELISA
Measured IC50 by item

compound	IC50
CCc1cc2c(cc1N1CCN(CC3(O)CCCCC3)CC1)C(C)(C)c1[nH]c3cc(C#N)ccc3c1C2=O	7 nM
CCc1cc2c(cc1N1CCN(CC(O)(CCC(=O)O)CC(=O)O)CC1)C(C)(C)c1[nH]c3cc(C#N)ccc3c1C2=O (stereo not given)	17.1 nM
CCc1cc2c(cc1N1CCN(CC3(O)CCNCC3)CC1)C(C)(C)c1[nH]c3cc(C#N)ccc3c1C2=O	1.4 nM
CCc1cc2c(cc1N1CCN(CC3(O)CC(C)OC(C)C3)CC1)C(C)(C)c1[nH]c3cc(C#N)ccc3c1C2=O (stereo not given)	2.4 nM
CCc1cc2c(cc1N1CCN(CC3(O)CCOCC3)CC1)C(C)(C)c1[nH]c3cc(C#N)ccc3c1C2=O	1.5 nM

All figures here come from ChEMBL document CHEMBL3864153.
